# STUDY TARGET: Sodium channel protein type 1 subunit alpha (Homo sapiens) (UniProt P35498)
# PROCEDURE DETAILS: Activation of human Nav1.1 expressed in T-Rex-CHO cells assessed as change in decay time constant of channel currents at 1 uM by Q-patch assay relative to control
# Format: cell-based
So basically: Activity at 700% or higher? That is 1.0. Lower than 700%? That is 0.0.

Example entries begin here.
[[record]]
smiles_entry = "Cc1cc(C)c(NC(=O)c2c(-c3ccc(Cl)cc3)noc2N2CCOCC2)c(C)c1"
label = 0.0

[[record]]
smiles_entry = "CC(C)c1ccc(NC(=O)c2c(-c3cc(F)ccc3F)ncnc2N2CC[C@H](F)C2)cn1"
label = 1.0

[[record]]
smiles_entry = "CC(C)c1ccc(NC(=O)c2c(-c3ccccc3)ncnc2N2CC[C@H](F)C2)cn1"
label = 0.0

[[record]]
smiles_entry = "CC(C)c1ccc(NC(=O)c2c(-c3cc(F)ccc3F)ccnc2N2CC[C@H](F)C2)cn1"
label = 1.0

[[record]]
smiles_entry = "CC(C)c1ccc(NC(=O)c2c(-c3ccc(Cl)cc3)ncnc2N2CCOCC2)cn1"
label = 0.0


Here's the next entry for you.
Exercise: Is the recorded value of Activity equal to or greater than 700% for this molecule? `CC(C)c1ccc(NC(=O)c2c(-c3ccccc3F)ncnc2N2CC[C@H](F)C2)cn1`
Key: 1.0

====

# STUDY TARGET: Sodium channel protein type 1 subunit alpha (Homo sapiens)
# PROCEDURE DETAILS: Activation of human Nav1.1 expressed in T-Rex-CHO cells assessed as change in decay time constant of channel currents at 1 uM at holding potential of -120 mV by automated patch-clamp electrophysiology assay relative to control
# Format: cell-based
As shown below, each of these molecules has a reported Activity value.
Answer in %, number only, no unit symbol.

The following molecules have reported results that may help.
[[record]]
smiles_entry = "CC(C)c1ccc(NC(=O)c2c(-c3ccccc3F)ncnc2N2CC[C@H](F)C2)cn1"
quantity_unit = "%"
value_reported = 135

[[record]]
smiles_entry = "CC(C)c1ccc(NC(=O)c2c(-c3cc(F)ccc3F)cncc2N2CC[C@H](F)C2)cn1"
quantity_unit = "%"
value_reported = 124

[[record]]
smiles_entry = "CC(C)c1ccc(NC(=O)c2c(-c3cc(F)ccc3F)ncnc2N2CC[C@H](F)C2)cn1"
quantity_unit = "%"
value_reported = 260

[[record]]
smiles_entry = "CC(C)c1ccc(NC(=O)c2c(-c3ccn(C)n3)ncnc2N2CC[C@H](F)C2)cn1"
quantity_unit = "%"
value_reported = 80


Exercise: Quick check: Activity of `CC(C)c1ccc(NC(=O)c2c(-c3ccc(F)cc3)ncnc2N2CC[C@H](F)C2)cn1` ?
Key: 93

====

// values below are reported Activity
# STUDY TARGET: Sodium channel protein type 1 subunit alpha (Homo sapiens) (UniProt P35498)
# PROCEDURE DETAILS: Activation of human Nav1.1 expressed in T-Rex-CHO cells assessed as change in decay time constant of channel currents at 3 uM at holding potential of -120 mV by automated patch-clamp electrophysiology assay relative to control
# Assay type: cell-based
Write down the numeric answer in % and omit the unit.

[[record]]
smiles_entry = "CC(C)c1ccc(NC(=O)c2c(-c3ccc(Cl)cc3)ncnc2N2CCCC2)cn1"
study_target = "Sodium channel protein type 1 subunit alpha (Homo sapiens) (UniProt P35498)"
value_reported = 140

[[record]]
smiles_entry = "CC(C)c1ccc(NC(=O)c2c(-c3ccn(C)n3)ncnc2N2CC[C@H](F)C2)cn1"
study_target = "Sodium channel protein type 1 subunit alpha (Homo sapiens) (UniProt P35498)"
value_reported = 87

[[record]]
smiles_entry = "CC(C)c1ccc(NC(=O)c2c(-c3ccc(Cl)cc3)ncnc2N2CC[C@@H](F)C2)cn1"
study_target = "Sodium channel protein type 1 subunit alpha (Homo sapiens) (UniProt P35498)"
value_reported = 145

[[record]]
smiles_entry = "CCN(CC)c1ncnc(-c2ccc(Cl)cc2)c1C(=O)Nc1ccc(C(C)C)nc1"
study_target = "Sodium channel protein type 1 subunit alpha (Homo sapiens) (UniProt P35498)"
value_reported = 96

[[record]]
smiles_entry = "CC(C)c1ccc(NC(=O)c2c(-c3ccc(Cl)cc3)cncc2N2CCOCC2)cn1"
study_target = "Sodium channel protein type 1 subunit alpha (Homo sapiens) (UniProt P35498)"
value_reported = 313

[[record]]
smiles_entry = "CC(C)c1ccc(NC(=O)c2c(-c3ccccc3F)ncnc2N2CC[C@H](F)C2)cn1"
study_target = "Sodium channel protein type 1 subunit alpha (Homo sapiens) (UniProt P35498)"
value_reported = 391

[[record]]
smiles_entry = "Cc1cc(C)c(NC(=O)c2c(-c3ccc(Cl)cc3)noc2N2CCOCC2)c(C)c1"
study_target = "Sodium channel protein type 1 subunit alpha (Homo sapiens) (UniProt P35498)"
value_reported = 99

[[record]]
smiles_entry = "CC(C)c1ccc(NC(=O)c2c(-c3ccoc3)ncnc2N2CC[C@H](F)C2)cn1"
study_target = "Sodium channel protein type 1 subunit alpha (Homo sapiens) (UniProt P35498)"
value_reported = 115

[[record]]
smiles_entry = "CC(C)c1ccc(NC(=O)c2c(-c3ccc(Cl)cc3)ncnc2N2CC[C@H](F)C2)cn1"
study_target = "Sodium channel protein type 1 subunit alpha (Homo sapiens) (UniProt P35498)"
value_reported = 257

[[record]]
smiles_entry = "CC(C)c1ccc(NC(=O)c2c(-c3ccc(Cl)cc3)ncnc2N2CCC2)cn1"
study_target = "Sodium channel protein type 1 subunit alpha (Homo sapiens) (UniProt P35498)"
value_reported = 111


Exercise: // query Activity value for entry `CC(C)c1ccc(NC(=O)c2c(-c3cc(F)ccc3F)ncnc2N2CC[C@H](F)C2)cn1`
Key: 714

Exercise: # input compound: `CC(C)c1ccc(NC(=O)c2c(-c3ccc(Cl)cc3)cccc2N2CCOCC2)cn1` ; wanted: its Activity
Key: 99

Exercise: Any idea what Activity was measured for `CC(C)c1ccc(NC(=O)c2c(N3CCOCC3)ccnc2-c2ccc(Cl)cc2)cn1` ?
Key: 97

Exercise: Any idea what Activity was measured for `CC(C)c1ccc(NC(=O)c2c(-c3ccccc3)ncnc2N2CC[C@H](F)C2)cn1` ?
Key: 302

Exercise: Bench note: what Activity did `CC(C)c1ccc(NC(=O)c2c(-c3cccc(F)c3)ncnc2N2CC[C@H](F)C2)cn1` show?
Key: 271

Exercise: Requested field: Activity. Item: `CC(C)c1ccc(NC(=O)c2c(-c3ccc(Cl)cc3)ncnc2N2CCC(F)(F)C2)cn1`
Key: 184

Exercise: Fill blank: measured Activity of the compound `CC(C)c1ccc(NC(=O)c2c(-c3ccc(Cl)cc3)ccnc2N2CCOCC2)cn1` is ____.
Key: 374

Exercise: Quick one: Activity of `CC(C)c1ccc(NC(=O)c2c(-c3cc(F)cc(F)c3F)ncnc2N2CC[C@H](F)C2)cn1` ?
Key: 298

Exercise: So what does the record say about Activity for `CC(C)c1ccc(NC(=O)c2c(-c3ccco3)ncnc2N2CC[C@H](F)C2)cn1` ?
Key: 98

Exercise: Which Activity reading was recorded for the compound `CC(C)c1ccc(NC(=O)c2c(-c3ccc(Cl)cc3)ncnc2N2CCCCC2)cn1` ?
Key: 110

Exercise: Could you tell me which Activity is on file for `CC(C)c1ccc(NC(=O)c2c(-c3ccc(F)cc3)ncnc2N2CC[C@H](F)C2)cn1` ?
Key: 197

Exercise: Consider the compound `CC(C)c1ccc(NC(=O)c2c(-c3ccc(Cl)cc3)ncnc2N2CCOCC2)cn1` and give its measured Activity.
Key: 258

Values were extracted from ChEMBL document CHEMBL4422659.
